These data points were gathered from paper PMC12344693.

- target or test system: Gal-1 (Homo sapiens, UniProt P09382, C3S)
- Sequence (P09382 whole entry C3S): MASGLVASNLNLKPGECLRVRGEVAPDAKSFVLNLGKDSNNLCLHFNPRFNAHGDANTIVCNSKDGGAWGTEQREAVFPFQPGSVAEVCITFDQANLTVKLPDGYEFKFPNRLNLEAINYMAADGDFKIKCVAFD
- assay method text: competitive ELISA, inhibition of galectin binding to immobilized asialofetuin
recorded endpoint: IC50 (µM)

• CC(=O)N[C@H]1[C@H](O[C@H]2[C@@H](O)[C@@H](CO)O[C@@H](O[C@H]3[C@H](O)[C@@H](O)[C@H](NC(=S)NCCNC(=O)OC(C)(C)C)O[C@@H]3CO)[C@@H]2O)O[C@H](CO)[C@@H](O[C@@H]2O[C@H](CO)[C@H](O)[C@H](O)[C@H]2NC(C)=O)[C@@H]1O = 435
• CC(=O)N[C@@H]1[C@@H](O)[C@H](O[C@@H]2O[C@H](CO)[C@H](O)[C@H](O[C@@H]3O[C@H](CO)[C@@H](O[C@@H]4O[C@H](CO)[C@H](O)[C@H](O)[C@H]4O)[C@H](O)[C@H]3NC(C)=O)[C@H]2O)[C@@H](CO)O[C@H]1NC(=S)NCCNC(=O)OC(C)(C)C = 106
• CC(=O)N[C@@H]1[C@@H](O)[C@H](O[C@@H]2O[C@H](CO)[C@H](O)[C@H](O[C@@H]3O[C@H](CO)[C@@H](O[C@@H]4O[C@H](CO)[C@H](O)[C@H](O)[C@H]4NC(C)=O)[C@H](O)[C@H]3NC(C)=O)[C@H]2O)[C@@H](CO)O[C@H]1NC(=S)NCCNC(=O)OC(C)(C)C = 98
• CC(=O)N[C@@H]1[C@@H](O)[C@H](O[C@@H]2O[C@H](CO)[C@H](O)[C@H](O)[C@H]2O)[C@@H](CO)O[C@H]1NC(=S)NCCNC(=O)OC(C)(C)C = 79

---

- target or test system: Gal-4 (Homo sapiens, UniProt P56470)
- Construct: Full-length recombinant human galectins (Gal-1, Gal-3, Gal-4, Gal-8, and Gal-9) for ELISA assays; made in house; host or cells: E. coli Rosetta 2(DE3)pLysS
- Sequence (P56470 whole entry): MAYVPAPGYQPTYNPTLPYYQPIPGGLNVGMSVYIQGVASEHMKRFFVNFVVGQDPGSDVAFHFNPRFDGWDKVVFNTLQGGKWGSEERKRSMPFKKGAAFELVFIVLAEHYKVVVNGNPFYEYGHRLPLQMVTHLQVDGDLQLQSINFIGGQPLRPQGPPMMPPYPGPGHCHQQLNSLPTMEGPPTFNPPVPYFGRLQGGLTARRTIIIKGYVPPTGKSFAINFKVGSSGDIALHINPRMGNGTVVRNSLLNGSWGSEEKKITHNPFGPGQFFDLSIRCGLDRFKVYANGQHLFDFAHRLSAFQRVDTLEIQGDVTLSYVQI
- assay method text: competitive ELISA, inhibition of galectin binding to immobilized asialofetuin
- condition details: competitive ELISA vs immobilized ASF; 2.5 μM Gal-4; at least quadruplicate
pIC50: −log10 of the molar value.
recorded endpoint: pIC50

- CC(=O)N[C@H]1[C@H](O[C@H]2[C@@H](O)[C@@H](CO)O[C@@H](O[C@H]3[C@H](O)[C@@H](O)[C@H](NC(=S)NCCNC(=O)OC(C)(C)C)O[C@@H]3CO)[C@@H]2O)O[C@H](CO)[C@@H](O[C@@H]2O[C@H](CO)[C@H](O)[C@H](O)[C@H]2NC(C)=O)[C@@H]1O: 2.79
- CC(=O)N[C@@H]1[C@@H](O)[C@H](O[C@@H]2O[C@H](CO)[C@H](O)[C@H](O[C@@H]3O[C@H](CO)[C@@H](O[C@@H]4O[C@H](CO)[C@H](O)[C@H](O)[C@H]4O)[C@H](O)[C@H]3NC(C)=O)[C@H]2O)[C@@H](CO)O[C@H]1NC(=S)NCCNC(=O)OC(C)(C)C: 2.62
- CC(=O)N[C@@H]1[C@@H](O)[C@H](O[C@@H]2O[C@H](CO)[C@H](O)[C@H](O[C@@H]3O[C@H](CO)[C@@H](O[C@@H]4O[C@H](CO)[C@H](O)[C@H](O)[C@H]4NC(C)=O)[C@H](O)[C@H]3NC(C)=O)[C@H]2O)[C@@H](CO)O[C@H]1NC(=S)NCCNC(=O)OC(C)(C)C: 2.70

[P] CC(=O)N[C@@H]1[C@@H](O)[C@H](O[C@@H]2O[C@H](CO)[C@H](O)[C@H](O)[C@H]2O)[C@@H](CO)O[C@H]1NC(=S)NCCNC(=O)OC(C)(C)C
[Q] CC(=O)N[C@@H]1[C@@H](O)[C@H](O[C@@H]2O[C@H](CO)[C@H](O)[C@H](O[C@@H]3O[C@H](CO)[C@@H](O)[C@H](O[C@@H]4O[C@H](CO)[C@H](O)[C@H](O)[C@H]4O)[C@H]3NC(C)=O)[C@H]2O)[C@@H](CO)O[C@H]1NC(=S)NCCNC(=O)OC(C)(C)C
[R] CC(=O)N[C@H]1[C@H](O[C@H]2[C@@H](O)[C@@H](CO)O[C@@H](O[C@H]3[C@H](O)[C@@H](O)[C@H](NC(=S)NCCNC(=O)OC(C)(C)C)O[C@@H]3CO)[C@@H]2O)O[C@H](CO)[C@@H](O)[C@@H]1O[C@@H]1O[C@H](CO)[C@H](O)[C@H](O)[C@H]1O
## Input Kindly order the items shown according to pIC50, from the highest value down. Answer format: the labels, in the requested order.
## Output R, Q, P
